tested on: 958767-090-R-J1-PDC spheroid growth; assay: Anticancer human tumor 958767-090-R-J1-PDC patient-derived head and neck squamous carcinoma cell line growth inhibition [IpAb]; details: second compound 0.1 µM; first compound 0.00316 µM; hits give low values; spheroids with HUVEC and MSC;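 note: spheroids exposed to agents for 7 days; 100% = DMSO vehicle control wells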
Measured viability, T/C values are reported for all entries that follow.

Example entries begin here.
CC(C)n1nc(-c2ccc3oc(N)nc3c2)c2c(N)ncnc21 + CC(C)NCC(C(=O)N1CCN(c2ncnc3c2C(C)CC3O)CC1)c1ccc(Cl)cc1 = 53.6%
CC(C)n1nc(-c2ccc3oc(N)nc3c2)c2c(N)ncnc21 + CCN1CCN(Cc2ccc(Nc3ncc(F)c(-c4cc(F)c5nc(C)n(C(C)C)c5c4)n3)nc2)CC1 = 70.3%

In the following, a different compound is considered.
### Prompt Find viability, T/C (958767-090-R-J1-PDC spheroid growth) for the entry COc1c(OCCCN2CCOCC2)ccc2c3n(c(=NC(=O)c4cnc(N)nc4)nc12)CCN3 + CC(C)NCC(C(=O)N1CCN(c2ncnc3c2C(C)CC3O)CC1)c1ccc(Cl)cc1
### Response 78%
